- PROTOCOL TEXT: Ratio of AUC (0 to 8 hrs) in Swiss mouse brain to AUC (0 to 8 hrs) in Swiss mouse plasma at 10 mg/kg, po by LC-MS/MS
- Assay type: ADME, organism-based
- Set-up: dose 10 mg/kg, route oral
- SETUP CONDITIONS: brain and plasma, read-out: Ratio AUC

{"SMILES STRUCTURE": "c1cc([C@H]2CC[C@H](N3CCOCC3)CC2)ccc1OCCCN1CCCCC1", "Kp": 7.4}

###

- PROTOCOL TEXT: Tmax in Swiss mouse brain at 10 mg/kg, po by LC-MS/MS
- Format: ADME, organism-based
- Set-up: dose 10 mg/kg, route oral
ENDPOINT: Tmax (h)

{"SMILES STRUCTURE": "c1cc(OCCCN2CCCCC2)ccc1CN1CCCCC1", "UNIT ABBREVIATION": "h", "OBSERVED VALUE": 3}

###

Test system Histamine H3 receptor (Mus musculus), pKi listed for each of the molecules.
pKi: −log10 of the molar value.
ENDPOINT: pKi

{"SMILES STRUCTURE": "CN(C)[C@H]1CC[C@H](c2ccc(OCCCN3CCCCC3)cc2)CC1", "ENDPOINT": "pKi", "OBSERVED VALUE": 9.28}
{"SMILES STRUCTURE": "c1ccc2c(c1)CN([C@H]1CC[C@H](c3ccc(OCCCN4CCCCC4)cc3)CC1)C2", "ENDPOINT": "pKi", "OBSERVED VALUE": 8.85}
{"SMILES STRUCTURE": "c1cc([C@H]2CC[C@H](N3CCOCC3)CC2)ccc1OCCCN1CCCCC1", "ENDPOINT": "pKi", "OBSERVED VALUE": 8.80}
{"SMILES STRUCTURE": "c1cc([C@H]2CC[C@H](N3CCCC3)CC2)ccc1OCCCN1CCCCC1", "ENDPOINT": "pKi", "OBSERVED VALUE": 9.48}
{"SMILES STRUCTURE": "c1cc([C@H]2CC[C@@H](N3CCCC3)CC2)ccc1OCCCN1CCCCC1", "ENDPOINT": "pKi", "OBSERVED VALUE": 9.00}
{"SMILES STRUCTURE": "CN(C)[C@H]1CC[C@@H](c2ccc(OCCCN3CCCCC3)cc2)CC1", "ENDPOINT": "pKi", "OBSERVED VALUE": 9.55}

###

- SUBJECT OF TEST: CYP3A4 (Homo sapiens)
- Sequence (P08684 whole entry): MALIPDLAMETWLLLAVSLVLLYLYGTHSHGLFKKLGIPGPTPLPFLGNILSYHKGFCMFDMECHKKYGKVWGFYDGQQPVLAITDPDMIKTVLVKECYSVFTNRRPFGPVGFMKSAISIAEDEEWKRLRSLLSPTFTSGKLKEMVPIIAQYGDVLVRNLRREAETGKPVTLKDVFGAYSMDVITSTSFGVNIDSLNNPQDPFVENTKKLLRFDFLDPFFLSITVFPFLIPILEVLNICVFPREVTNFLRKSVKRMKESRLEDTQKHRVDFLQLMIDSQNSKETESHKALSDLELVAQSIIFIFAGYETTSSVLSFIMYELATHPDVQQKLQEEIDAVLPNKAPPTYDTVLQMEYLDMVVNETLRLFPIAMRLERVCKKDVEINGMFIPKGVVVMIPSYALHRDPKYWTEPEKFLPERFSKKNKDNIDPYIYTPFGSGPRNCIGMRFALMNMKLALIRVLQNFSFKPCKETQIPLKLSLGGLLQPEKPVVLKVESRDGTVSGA
- PROTOCOL TEXT: Inhibition of CYP3A4 at 1 uM
- Type: ADME
Property: inhibition at 1 µM; scope: individual compounds

{"SMILES STRUCTURE": "CN1CCN([C@H]2CC[C@H](c3ccc(OCCCN4CCCCC4)cc3)CC2)CC1", "inhibition at 1 µM": "20.9%"}
{"SMILES STRUCTURE": "c1ccc2c(c1)CN([C@H]1CC[C@H](c3ccc(OCCCN4CCCCC4)cc3)CC1)C2", "inhibition at 1 µM": "8.9%"}
{"SMILES STRUCTURE": "c1cc([C@H]2CC[C@H](N3CCC3)CC2)ccc1OCCCN1CCCCC1", "inhibition at 1 µM": "4.2%"}
{"SMILES STRUCTURE": "O=C1CCC(c2ccc(OCCCN3CCCCC3)cc2)CC1", "inhibition at 1 µM": "4.1%"}
{"SMILES STRUCTURE": "CC1CCN([C@H]2CC[C@@H](c3ccc(OCCCN4CCCCC4)cc3)CC2)CC1", "inhibition at 1 µM": "26.1%"}
